Tested on: CB1-nanodisc
Test: Octet affinity assay with CB1-nanodisc
Format: binding, human
Details: 1:1 Langmuir model
measurement label: Octet (nanodisc) k off (s⁻¹)
Dear colleague, please return just the value in s⁻¹, with no unit written.

Determine from records and report Octet (nanodisc) k off for LIBC527814-1: LC-swapped affinity-matured 10D10 variant; HV SEQ ID NO: 236, LV SEQ ID NO: 235 (antibody, V domains shown) VH: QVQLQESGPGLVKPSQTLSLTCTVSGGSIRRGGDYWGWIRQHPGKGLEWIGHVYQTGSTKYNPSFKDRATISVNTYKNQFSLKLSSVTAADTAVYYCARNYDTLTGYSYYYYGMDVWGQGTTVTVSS VL: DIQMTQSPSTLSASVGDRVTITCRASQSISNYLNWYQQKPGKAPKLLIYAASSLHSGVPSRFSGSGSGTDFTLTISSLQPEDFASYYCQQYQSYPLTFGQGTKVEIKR
0.00198

// provenance: patent US20250277029A1
